- tested.system: PRKCE (human) (UniProt Q02156)
- Sequence (Q02156 whole entry, looked up): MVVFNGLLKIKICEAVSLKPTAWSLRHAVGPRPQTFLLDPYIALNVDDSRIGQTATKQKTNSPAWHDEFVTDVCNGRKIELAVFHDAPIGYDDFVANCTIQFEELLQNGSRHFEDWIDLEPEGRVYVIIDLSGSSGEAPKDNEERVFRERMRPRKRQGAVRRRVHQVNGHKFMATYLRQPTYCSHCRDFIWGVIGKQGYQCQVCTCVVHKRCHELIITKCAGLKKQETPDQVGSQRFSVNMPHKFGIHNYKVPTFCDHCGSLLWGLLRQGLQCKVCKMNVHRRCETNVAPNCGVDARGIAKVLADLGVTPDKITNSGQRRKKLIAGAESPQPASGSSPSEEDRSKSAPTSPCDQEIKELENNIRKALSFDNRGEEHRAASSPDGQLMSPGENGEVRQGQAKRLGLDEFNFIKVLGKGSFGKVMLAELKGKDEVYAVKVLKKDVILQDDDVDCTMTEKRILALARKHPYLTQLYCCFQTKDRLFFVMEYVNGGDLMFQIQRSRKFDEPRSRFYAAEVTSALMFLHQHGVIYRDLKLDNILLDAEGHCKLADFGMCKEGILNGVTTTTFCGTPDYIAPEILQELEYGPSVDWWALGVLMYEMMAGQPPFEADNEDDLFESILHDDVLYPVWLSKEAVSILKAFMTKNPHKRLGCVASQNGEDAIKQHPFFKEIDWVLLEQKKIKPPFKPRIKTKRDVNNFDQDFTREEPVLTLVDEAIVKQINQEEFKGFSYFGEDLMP
- protocol.summary: radiometric filter-binding kinase assay, Kinase HotSpot
- conditions: compound 0.5 µM; ATP 10 µM
readout: residual activity (%)
Field: numeric (%). Do not append units.

-- ask So what does the record say about residual activity for O=C1c2ccccc2-c2nc3nnnn3nc21 ?
-- reply 99

-- ask What do we get for COc1cc(Nc2c(C#N)cnc3cc(OCCCN4CCN(C)CC4)c(OC)cc23)c(Cl)cc1Cl ?
-- reply 78

-- ask What do we get for Cn1c2ccccc2c2c3c(c4c5ccccc5n(CCC#N)c4c21)CNC3=O ?
-- reply 58.5

-- ask What do we get for c1ccc2c(-c3ccncc3)c[nH]c2c1 ?
-- reply 81.5

-- ask What do we get for CO[C@@H]1[C@H](N(C)C(=O)c2ccccc2)C[C@H]2O[C@]1(C)n1c3ccccc3c3c4c(c5c6ccccc6n2c5c31)C(=O)NC4 ?
-- reply 10.7

-- ask What do we get for O=C1Nc2ccc(Br)cc2/C1=C\c1cc2c([nH]1)CCCC2 ?
-- reply 99.1

-- ask What do we get for CC(C)(C)c1cc(C=C(C#N)C#N)cc(Br)c1O ?
-- reply 108

-- ask What do we get for COc1cc2ncnc(Nc3ccc(Oc4ccccc4)cc3)c2cc1OC ?
-- reply 94.6
